- ASSAY_METHOD_TEXT: in vivo
- ASSAY_SETUP: both sexes, mouse, mice
METRIC: NOAEL (mg/kg)
Answers are plain numbers, in mg/kg.

Challenge: Which NOAEL value belongs to c1coc(CNc2ncnc3[nH]cnc23)c1 [MB-905, N6-furfurylaminopurine] ?
Response given: 500

====

- ASSAY_METHOD_TEXT: Pharmacokinetics and metabolites in rat plasma
- Assay type: in vivo, Sprague-Dawley rats (Rattus norvegicus)
- ASSAY_SETUP: both sexes, Sprague-Dawley, rat, plasma, iv; rats; 1 mg/kg (i.v.)
METRIC: clearance

Challenge: Can you look up the measured clearance of c1coc(CNc2ncnc3[nH]cnc23)c1 for me?
Response given: 214 mL/min/kg
